# Tested on: CCRF-CEM
# run.description: Cytotoxicity against human CCRF-CEM cells after 72 hrs by XTT assay
# Type: functional, cell-based
Exercise: for every item that follows, state its recorded pIC50.
Kindly note that pIC50 refers to -log10 of the concentration in mol/L and answer with the value alone.

Hi! What's the reported pIC50 for CCNC(=O)OCc1c(COC(=O)NCC)c2n(c1C)Cc1c(c3ccccc3n1Cc1ccccc1)C2 on CCRF-CEM?
6.85

Hi! What's the reported pIC50 for COc1ccc(-c2c(COC(=O)NC(C)C)c(COC(=O)NC(C)C)c3n2Cc2c(c4ccccc4n2C)C3)cc1 on CCRF-CEM?
6.92

Hi! What's the reported pIC50 for CCNC(=O)OCc1c(COC(=O)NCC)c2n(c1CC)Cc1c(c3ccccc3n1C)C2 on CCRF-CEM?
6.80

Hi! What's the reported pIC50 for CCc1c(COC(=O)NC(C)C)c(COC(=O)NC(C)C)c2n1Cc1c(c3ccccc3n1C)C2 on CCRF-CEM?
6.80

Hi! What's the reported pIC50 for CCn1c2c(c3ccccc31)Cc1c(COC(=O)NC(C)C)c(COC(=O)NC(C)C)c(C)n1C2 on CCRF-CEM?
6.85
